B1: Membrane-associated guanylate kinase, WW and PDZ domain-containing protein 2, residues 296 to 340; numbered along this chain, Q86UL8 (parent)
chain: EDNEEPDPLPDNWEMAYTEKGEVYFIDHNTKTTSWLDPRLAKKAK

# Variants of: B1
# Experiment: abundance fitness (aPCA) (normalised: wild type 0, dead -1); higher = more abundant; growth selection in yeast, the domain comes from the species named
# Assay Setup: Homo sapiens
Decision: abundance fitness compared against -0.08; not below it gives True, below it gives False.

Before answering, review these 4 worked examples.
A16C : False
T33W : False
Y24L : False
G21W : False

Here is the next item to consider.
Q. Please check the record `T18S` and state if its abundance fitness is at or above -0.08.
A. True
